System: BRISTOL8
Assay Procedure: Cytotoxic activity against human BRISTOL8 cell line was measured after 72 hr using MTT assay
Assay type: functional
Test Parameters: Homo sapiens, BRISTOL8, 72 h; read-out: ED50 (the source's name)
Rule: EC50 below 2 µg/mL gives 1.0, anything at or above gives 0.0.

Compound	Class Assignment
C=C(C)[C@@H]1CC[C@]2(C(=O)O)CC[C@]3(C)C(CCC4[C@@]5(C)CC[C@H](OC(=O)CC)C(C)(C)C5CC[C@]43C)C12 (stereo not given in full)	0.0
C=C(C)[C@@H]1CC[C@]2(C(=O)OCC(=O)OC)CC[C@]3(C)C(CCC4[C@@]5(C)CC[C@H](O)C(C)(C)C5CC[C@]43C)C12 (stereo in doubt; 3)	0.0
COC(=O)COC(=O)[C@]12CC[C@@H](C(C)C)C1C1CCC3[C@@]4(C)CC[C@H](O)C(C)(C)C4CC[C@@]3(C)[C@]1(C)CC2 (stereo not given in full)	0.0
COC(=O)CCOC(=O)[C@]12CC[C@@H](C(C)C)C1C1CCC3[C@@]4(C)CC(Br)C(=O)C(C)(C)C4CC[C@@]3(C)[C@]1(C)CC2 (stereo not given in full)	0.0
C=C(C)[C@@H]1CC[C@]2(C(=O)OCC(=O)OC)CC[C@]3(C)C(CCC4[C@@]5(C)CCC(=N)C(C)(C)C5CC[C@]43C)C12 (stereo not given in full)	1.0
